assay: Solubility of Drugs in single solvent alcohols; assay type: physicochemical; details: Solubility at Room Temperature
observable: Maximum Drug Concentration in single alcohol: IPA

# molecule, reported value
measured = [
    ("CCCCOc1ccc(CC(=O)NO)cc1", 0.62),
    ("CC(=O)Nc1ccc(O)cc1", 4.35),
    ("COc1ccc2c(c1)c(CC(=O)O)c(C)n2C(=O)c1ccc(Cl)cc1", 0.10),
    ("CC(C)Cc1ccc(C(C)C(=O)O)cc1 (centres unmarked)", 35.71),
    ("CC(C(=O)O)c1ccc(-c2ccccc2)c(F)c1 (centres unmarked)", 14.29),
]

---

assay: Super-solvent water effect (maximum water before NSAID precipitates); assay type: physicochemical; details: Ibuprofen 2 gm, PEG 3 gm, EtOH 1 gm
observable: Super-solvent Effect on water

# compound, observable, reported value
rows = [
    ("CC(C)Cc1ccc(C(C)C(=O)O)cc1 (stereo not shown)", "Super-solvent Effect on water", "45.9%"),
]

---

test: Super-solvent water effect (maximum water before NSAID precipitates); type: physicochemical; settings: Ibuprofen 3 gm, PG 4 gm, EtOH 1 gm, IPA 1.1 gm

# compound, unit string, Super-solvent Effect on water
rows = [
    ("CC(C)Cc1ccc(C(C)C(=O)O)cc1 (stereo not shown)", "%", 63.2),
]

---

assay: Solubility of Drugs in single solvent alcohols; assay type: physicochemical; conditions: Solubility at 35 C
Each entry below lists one item and its recorded Maximum Drug Concentration in single alcohol: EtOH value.
observable: Maximum Drug Concentration in single alcohol: EtOH

# molecule, reported value
data = [
    ("CC(C)Cc1ccc(C(C)C(=O)O)cc1 (stereo not shown) [Ibuprofen]", 50.00),
    ("CC(=O)Nc1ccc(O)cc1 [Acetaminophen]", 16.67),
    ("CC(C(=O)O)c1ccc(-c2ccccc2)c(F)c1 (stereo not shown) [Flurbiprofen]", 33.33),
    ("O=C(O)Cc1ccccc1Nc1c(Cl)cccc1Cl [Diclofenac]", 14.29),
]

---

assay: Super-solvent water effect (maximum water before NSAID precipitates); assay type: physicochemical; conditions: Ibuprofen 3 gm, PG 4 gm, PEG 3 gm, EtOH 1 gm

# molecule, Super-solvent Effect on water / %
data = [
    ("CC(C)Cc1ccc(C(C)C(=O)O)cc1 (stereo not shown) [Ibuprofen]", 57.5),
]

---

assay: Solubility of Drugs in single solvent alcohols; format: physicochemical; settings: Solubility at 35 C
Each entry below lists one item and its recorded Maximum Drug Concentration in single alcohol: PG value.
observable: Maximum Drug Concentration in single alcohol: PG

# compound, reported value
measured = [
    ("CC(=O)Nc1ccc(O)cc1", 10.00),
    ("CC(C(=O)O)c1ccc(-c2ccccc2)c(F)c1 (stereo not shown)", 14.29),
    ("O=C(O)Cc1ccccc1Nc1c(Cl)cccc1Cl", 14.29),
    ("CC(C)Cc1ccc(C(C)C(=O)O)cc1 (stereo not shown)", 20.00),
]

---

assay: Solubility of Drugs in single solvent alcohols; assay type: physicochemical; conditions: Solubility at 35 C
observable: Maximum Drug Concentration in single alcohol: PEG

# molecule, reported value
data = [
    ("O=C(O)Cc1ccccc1Nc1c(Cl)cccc1Cl", 8.33),
    ("CC(=O)Nc1ccc(O)cc1", 10.00),
    ("CC(C)Cc1ccc(C(C)C(=O)O)cc1 (stereo not shown)", 25.00),
    ("CC(C(=O)O)c1ccc(-c2ccccc2)c(F)c1 (stereo not shown)", 33.33),
]
